target: B1R receptor of the rat (rB1R) (Rattus norvegicus); construct: expressed in transfected cells; host or cells: CHO K1 cells (Chinese hamster ovary), stably transfected; test: Functional FLIPR Ca2+ assay on the bradykinin 1 receptor, rat (rB1R CHO K1 cells); format: cell-based; details: test substance 10 μM; CHO K1 cells transfected with rat B1R gene; agonist Des-Arg9-bradykinin at EC80; % inhibition compared with maximum achievable inhibition; read-out: B1R antagonism, rat [10 μM] % inhibition
Measured Quantity: inhibition at 10 µM (%)

INSERT INTO results (compound, reading_unit, reading) VALUES
  ('COc1cc(C)c(S(=O)(=O)N2CCCCC2COCC(=O)N2CCc3onc(-c4ccc(F)cc4)c3C2)c(C)c1 (centres unmarked)', '%', 103),
  ('CCC1c2ccsc2CCN1C(=O)COCCN(C)S(=O)(=O)c1c(C)cc(OC)cc1C (centres unmarked)', '%', 109),
  ('CN1CCN(Cc2cc3c(s2)CCN(C(=O)COCC2COc4ccccc4N2S(=O)(=O)c2ccccc2C(F)(F)F)C3)CC1 (centres unmarked)', '%', 93),
  ('COc1cc(C)c(S(=O)(=O)N2CCCCC2COCC(=O)N2CCc3sc(CN4CCN(C)CC4)cc3C2)c(C)c1 (centres unmarked)', '%', 102),
  ('CN1CCN(Cc2cc3c(s2)CCN(C(=O)CC2CCCCN2S(=O)(=O)c2cccc(C(F)(F)F)c2)C3)CC1 (centres unmarked)', '%', 59);

[1] COc1cc(C)c(S(=O)(=O)N2c3ccccc3CCC2COCC(=O)N2CCc3[nH]cnc3C2c2ccccc2)c(C)c1 (centres unmarked)
[2] Cc1cc(S(=O)(=O)N2CCCCC2CCC(=O)N2CCc3sccc3C2c2ccccc2C)c(C)cc1Cl (centres unmarked)
Task: Of the two listed items, 1 and 2 , which carries the larger inhibition at 10 µM figure? Label of pick, please.
Result: 1
(1: 96%, 2: 60%)

[I] COc1cc(C)c(S(=O)(=O)N2CCCCC2COCC(=O)N2CCc3sccc3C2c2ccc(F)cc2)c(C)c1 (centres unmarked)
[II] O=C(COCC1COc2ccccc2N1S(=O)(=O)c1ccccc1C(F)(F)F)N1CCc2[nH]cnc2C1c1ccccc1 (centres unmarked)
Task: Of the two listed items, I and II , which carries the larger inhibition at 10 µM figure? Label of pick, please.
Result: I

[a] COc1cc(C)c(S(=O)(=O)N2CCCCC2COCC(=O)N2CCc3onc(-c4ccc(Cl)cc4)c3C2)c(C)c1 (centres unmarked)
[b] O=C(CCCC1CCCCN1S(=O)(=O)c1ccccc1C(F)(F)F)N1CCc2[nH]cnc2C1c1ccccc1 (centres unmarked)
Task: Of a and b , which carries the smaller reported inhibition at 10 µM figure? Label of pick, please.
Result: b

====

target: B1R receptor of the rat (rB1R) (Rattus norvegicus, UniProt P97583); construct: expressed in transfected cells; host or cells: CHO K1 cells (Chinese hamster ovary), stably transfected; test: Functional FLIPR Ca2+ assay on the bradykinin 1 receptor, rat (rB1R CHO K1 cells); assay type: cell-based; settings: test substance 10 μM; CHO K1 cells transfected with rat B1R gene; agonist Des-Arg9-bradykinin at EC80; % inhibition compared with maximum achievable inhibition; read-out: B1R antagonism, rat [10 μM] % inhibition
Sequence (P97583 whole entry): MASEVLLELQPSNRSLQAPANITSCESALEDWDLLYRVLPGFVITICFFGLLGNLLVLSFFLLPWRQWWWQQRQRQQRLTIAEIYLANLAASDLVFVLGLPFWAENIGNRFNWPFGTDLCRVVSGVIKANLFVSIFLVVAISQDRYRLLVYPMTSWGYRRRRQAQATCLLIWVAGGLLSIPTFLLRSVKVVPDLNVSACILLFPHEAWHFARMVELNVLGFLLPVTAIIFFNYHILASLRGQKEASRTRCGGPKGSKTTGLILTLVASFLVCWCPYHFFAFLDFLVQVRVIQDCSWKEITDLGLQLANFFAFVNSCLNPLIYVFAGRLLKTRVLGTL
Measured Quantity: inhibition at 10 µM (%)

INSERT INTO assay_data (compound, reading) VALUES
  ('O=C(CC1CCCCN1S(=O)(=O)c1cccc(C(F)(F)F)c1)N1CCc2nc(Cc3ccncc3)sc2C1 (stereo not drawn) [Example 40]', 90),
  ('O=C(C[C@@H](NS(=O)(=O)c1ccc2ccccc2c1)c1ccccc1)N1CCc2sc(CN3CCCCC3)cc2C1 [Example 26]', 101),
  ('COc1cc(C)c(S(=O)(=O)N2CCCCC2CCCC(=O)N2CCc3nc(Cc4ccncc4)sc3C2)c(C)c1 (stereo not drawn) [Example 43]', 99);

====

molecular target: human B1R receptor (hB1R) (Homo sapiens); construct: expressed in transfected cells; host or cells: CHO K1 cells (Chinese hamster ovary), stably transfected; assay: Functional FLIPR Ca2+ assay on the bradykinin 1 receptor, human (hB1R CHO K1 cells); format: cell-based; settings: test substance 10 μM; CHO K1 cells transfected with human B1R gene; agonist Lys-Des-Arg9-bradykinin at EC80; % inhibition compared with maximum achievable inhibition; read-out: B1R antagonism, human (10 μM] % inhibition
Sequence (P46663 whole entry): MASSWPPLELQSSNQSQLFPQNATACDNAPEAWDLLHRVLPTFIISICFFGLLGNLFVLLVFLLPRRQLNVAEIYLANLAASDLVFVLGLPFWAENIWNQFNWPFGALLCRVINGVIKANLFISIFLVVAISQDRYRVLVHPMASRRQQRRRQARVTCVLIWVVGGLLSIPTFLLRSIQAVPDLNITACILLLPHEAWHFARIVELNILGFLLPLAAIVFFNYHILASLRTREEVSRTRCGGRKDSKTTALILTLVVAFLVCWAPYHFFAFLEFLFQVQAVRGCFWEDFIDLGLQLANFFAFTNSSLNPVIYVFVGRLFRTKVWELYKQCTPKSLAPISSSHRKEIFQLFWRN
Measured Quantity: inhibition at 10 µM (%)

Worked examples, 4 molecules total:
INSERT INTO assay_data (molecule, reading) VALUES
  ('Cc1cccc(C2c3ccsc3CCN2C(=O)CCC2CCCCN2S(=O)(=O)c2cc(C)c(Cl)cc2C)c1 (stereo not shown)', 78),
  ('CCC1c2ccsc2CCN1C(=O)COCCN(C)S(=O)(=O)c1c(C)cc(OC)cc1C (stereo not shown)', 99),
  ('CCC1c2ccsc2CCN1C(=O)CCCC1CCCCN1S(=O)(=O)c1c(C)cc(OC)cc1C (stereo not shown)', 91),
  ('COc1cc(C)c(S(=O)(=O)N2CCCCC2COCC(=O)N2CCc3sccc3C2c2ccccc2)c(C)c1 (stereo not shown)', 69);

[I] COc1cc(C)c(S(=O)(=O)N2CCCCC2COCC(=O)N2CCc3sccc3C2c2ccc(C)cc2)c(C)c1 (stereo not shown)
[II] O=C(C[C@@H](NS(=O)(=O)c1ccc2ccccc2c1)c1ccccc1)N1CCc2sccc2C1c1ccc(F)cc1 (stereo partly shown)
[III] COc1cc(C)c(S(=O)(=O)N2CCCCC2COCC(=O)N2CCc3onc(CN(C)C)c3C2)c(C)c1 (stereo not shown)
Task: Arrange the 3 entries by inhibition at 10 µM so the values rise. # the answer lists labels in the order requested
Result: II, I, III
(II: 34%, I: 69%, III: 100%)

====

molecular target: human B1R receptor (hB1R) (Homo sapiens); construct: expressed in transfected cells; host or cells: CHO K1 cells (Chinese hamster ovary), stably transfected; assay: Functional FLIPR Ca2+ assay on the bradykinin 1 receptor, human (hB1R CHO K1 cells); format: cell-based; conditions: test substance 10 μM; CHO K1 cells transfected with human B1R gene; agonist Lys-Des-Arg9-bradykinin at EC80; % inhibition compared with maximum achievable inhibition; read-out: B1R antagonism, human (10 μM] % inhibition
Measured Quantity: inhibition at 10 µM (%)

[P] Cc1cc(S(=O)(=O)N2CCCCC2CCC(=O)N2CCc3sccc3C2c2ccccc2C)c(C)cc1Cl (centres unmarked) [Example 11]
[Q] COc1cc(C)c(S(=O)(=O)N2CCCCC2CCC(=O)N2CCc3sc(CN4CCN(C)CC4)cc3C2)c(C)c1 (centres unmarked) [Example 45]
Task: Of P and Q , which carries the smaller reported inhibition at 10 µM figure? Label of pick, please.
Result: P
(P: 7%, Q: 98%)

[1] COc1cc(C)c(S(=O)(=O)N2c3ccccc3CC[C@H]2COCC(=O)N2CCc3onc(-c4ccncc4)c3C2)c(C)c1 [Example 125]
[2] O=C(CC(NS(=O)(=O)c1ccc2ccccc2c1)c1ccccc1)N1CCc2nc(Cc3ccncc3)sc2C1 (racemic) [Example 42]
Task: Of the two listed items, 1 and 2 , which carries the larger inhibition at 10 µM figure? Label of pick, please.
Result: 1

====

target: B1R receptor of the rat (rB1R) (Rattus norvegicus, UniProt P97583); construct: expressed in transfected cells; host or cells: CHO K1 cells (Chinese hamster ovary), stably transfected; experiment: Functional FLIPR Ca2+ assay on the bradykinin 1 receptor, rat (rB1R CHO K1 cells); format: cell-based; conditions: test substance 10 μM; CHO K1 cells transfected with rat B1R gene; agonist Des-Arg9-bradykinin at EC80; % inhibition compared with maximum achievable inhibition; read-out: B1R antagonism, rat [10 μM] % inhibition
Measured Quantity: inhibition at 10 µM (%)

Worked examples, 5 compounds total:
INSERT INTO assay_data (compound, measured_quantity, reading) VALUES
  ('COc1cc(C)c(S(=O)(=O)N2c3ccccc3CC[C@H]2COCC(=O)N2CCc3sc(CN4CCCCC4)cc3C2)c(C)c1', 'inhibition at 10 µM', 106),
  ('COc1cc(C)c(S(=O)(=O)N2CCCC[C@H]2COCC(=O)N2CCc3nc(CN4CCCCC4)sc3C2)c(C)c1', 'inhibition at 10 µM', 103),
  ('COc1cc(C)c(S(=O)(=O)N2CCCCC2CCC(=O)N2CCc3nc(Cc4ccncc4)sc3C2)c(C)c1 (stereo not shown)', 'inhibition at 10 µM', 99),
  ('O=C(CC1CCCCN1S(=O)(=O)c1cccc(C(F)(F)F)c1)N1CCc2onc(CN3CCCCC3)c2C1 (stereo not shown)', 'inhibition at 10 µM', 27),
  ('COc1cc(C)c(S(=O)(=O)N2CCCCC2CCC(=O)N2CCc3sc(CN4CCN(C)CC4)cc3C2)c(C)c1 (stereo not shown)', 'inhibition at 10 µM', 99);

[a] O=C(C[C@@H](NS(=O)(=O)c1ccc2ccccc2c1)c1ccccc1)N1CCc2onc(-c3ccncc3)c2C1
[b] O=C(CCCC1CCCCN1S(=O)(=O)c1ccc2ccccc2c1)N1CCc2[nH]cnc2C1c1ccccc1 (stereo not shown)
Task: Of the two listed items, a and b , which carries the larger inhibition at 10 µM figure? Label of pick, please.
Result: a
(a: 102%, b: 48%)

[I] COc1cc(C)c(S(=O)(=O)N2CCCCC2COCC(=O)N2CCc3nc(-c4ccncc4)sc3C2)c(C)c1 (stereo not shown)
[II] COc1cc(C)c(S(=O)(=O)N(C)CCOCC(=O)N2CCc3[nH]cnc3C2c2ccccc2)c(C)c1C (stereo not shown)
Task: Of I and II , which carries the smaller reported inhibition at 10 µM figure? Label of pick, please.
Result: II

Data origin, for the record: patent US8268814B2
